tested on: Bacteroides ovatus; experiment: Antibacterial activity against Bacteroides ovatus by CLSI M11-A7 agar dilution method; type: functional
Reported MIC90 is given for each of the following compounds.
# number only, unit µg/mL dropped from output

In the examples that follow, each entry is paired with its recorded MIC90.
>>> df
                                   compound  test_result
0  Cn1nnc(-c2ccc(-c3ccc(N4C[C@H](CO)OC4=O)cc3F)cn2)n1            8
1  C[C@@H](O)[C@H]1C(=O)N2C(C(=O)O)=C(SCCNC=N)C[C@H]12 [IMIPENEM ANHYDROUS]          0.5
2  CC(=O)NC[C@H]1CN(c2ccc(N3CCOCC3)c(F)c2)C(=O)O1            8

# ---- query compound ----
(Q) So what does the record say about MIC90 for Cc1ncc([N+](=O)[O-])n1CCO ?
(A) 1

###

system: Phocaeicola vulgatus; assay: Antibacterial activity against Bacteroides vulgatus by CLSI M11-A7 agar dilution method; format: functional
measured_parameter: MIC50 (µg/mL)
Answer with a number only, understood to be in µg/mL.

Solved entries (count: 3):
>>> df
                                   molecule  measured_parameter  test_result
0  C[C@@H](O)[C@H]1C(=O)N2C(C(=O)O)=C(SCCNC=N)C[C@H]12 [IMIPENEM ANHYDROUS]               MIC50         0.25
1  Cn1nnc(-c2ccc(-c3ccc(N4C[C@H](CO)OC4=O)cc3F)cn2)n1               MIC50            2
2  CC(=O)NC[C@H]1CN(c2ccc(N3CCOCC3)c(F)c2)C(=O)O1               MIC50            2

Please examine the following record next.
(Q) What does the record list as MIC50 for Cc1ncc([N+](=O)[O-])n1CCO ?
(A) 0.25

###

test system: Staphylococcus aureus; experiment: Antibacterial activity against methicillin-resistant Staphylococcus aureus by CLSI M7-A7 broth microdilution method; type: functional
Quick list: MIC90 per entry.
Just the number in µg/mL, nothing appended.

# annotated cases, reported MIC90 shown
molecule	measured_parameter	test_result
Cc1onc(-c2ccccc2)c1C(=O)N[C@@H]1C(=O)N2[C@@H]1SC(C)(C)[C@@H]2C(=O)O [OXACILLIN]	MIC90	32
Cn1nnc(-c2ccc(-c3ccc(N4C[C@H](CO)OC4=O)cc3F)cn2)n1 [TEDIZOLID]	MIC90	0.5

(Q) Form field: reported MIC90 of CN[C@H](CC(C)C)C(=O)N[C@H]1C(=O)N[C@@H](CC(N)=O)C(=O)N[C@H]2C(=O)N[C@H]3C(=O)N[C@H](C(=O)N[C@H](C(=O)O)c4cc(O)cc(O)c4-c4cc3ccc4O)[C@H](O)c3ccc(c(Cl)c3)Oc3cc2cc(c3O[C@@H]2O[C@H](CO)[C@@H](O)[C@H](O)[C@H]2O[C@H]2C[C@](C)(N)[C@H](O)[C@H](C)O2)Oc2ccc(cc2Cl)[C@H]1O [VANCOMYCIN]
(A) 1

(Q) Entry to check: CC(=O)NC[C@H]1CN(c2ccc(N3CCOCC3)c(F)c2)C(=O)O1 [LINEZOLID]
(A) 4
